Catalogue of Emax values
molecular target: Kappa-type opioid receptor (Homo sapiens, UniProt P41145); assay: Agonist activity at KOR (unknown origin) transfected in CHO cells co-expressing Galphaq15 assessed as increase in calcium mobilization by measuring maximal efficacy by Fluo-4AM dye based assay relative to control; format: functional, cell-based; conditions: filed as agonist
Sequence (P41145 whole entry): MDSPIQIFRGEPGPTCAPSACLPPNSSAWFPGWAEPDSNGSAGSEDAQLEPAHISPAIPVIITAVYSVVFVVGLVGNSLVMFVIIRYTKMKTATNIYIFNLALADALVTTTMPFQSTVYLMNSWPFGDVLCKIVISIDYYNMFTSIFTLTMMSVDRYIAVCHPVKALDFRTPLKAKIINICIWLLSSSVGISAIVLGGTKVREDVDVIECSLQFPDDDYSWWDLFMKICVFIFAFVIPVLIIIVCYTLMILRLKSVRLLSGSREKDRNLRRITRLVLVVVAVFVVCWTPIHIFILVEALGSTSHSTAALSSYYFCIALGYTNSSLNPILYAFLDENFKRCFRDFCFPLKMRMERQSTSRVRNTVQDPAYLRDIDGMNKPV

| Compound string | Emax |
| --- | --- |
| CN1C(=O)CNC(=O)[C@H](N[C@@H](Cc2ccc(O)cc2)C(=O)O)CCC/C=C/CC[C@@H](C(=O)N2CCC[C@H]2C(=O)N[C@@H](CCC(N)=O)C(=O)N[C@@H](CCCNC(=N)N)C(=O)N[C@@H](Cc2ccccc2)C(N)=O)NC(=O)[C@@H]1Cc1ccccc1 | 96.4% |

Task: Which Emax reading was recorded for the compound CN1C(=O)CNC(=O)[C@H](N[C@@H](Cc2ccc(O)cc2)C(=O)O)CCCC/C=C/C[C@@H](C(=O)N2CCC[C@H]2C(=O)N[C@@H](CCC(N)=O)C(=O)N[C@@H](CCCNC(=N)N)C(=O)N[C@@H](Cc2ccccc2)C(N)=O)NC(=O)[C@@H]1Cc1ccccc1 ?
Output: 106%

Task: Returns the measured Emax for the input compound. Input: CN1C(=O)CNC(=O)[C@H](N[C@@H](Cc2ccc(O)cc2)C(=O)O)CCCC/C=C/CC[C@@H](C(=O)N2CCC[C@H]2C(=O)N[C@@H](CCC(N)=O)C(=O)N[C@@H](CCCNC(=N)N)C(=O)N[C@@H](Cc2ccccc2)C(N)=O)NC(=O)[C@@H]1Cc1ccccc1
Output: 100%

* * *

biological target: Mu-type opioid receptor (Homo sapiens, UniProt P35372); assay: Agonist activity at MOR (unknown origin) transfected in CHO cells co-expressing Galphaq15 assessed as increase in calcium mobilization by measuring maximal efficacy by Fluo-4AM dye based assay relative to control; format: functional, cell-based; conditions: filed as agonist
Sequence (P35372 whole entry): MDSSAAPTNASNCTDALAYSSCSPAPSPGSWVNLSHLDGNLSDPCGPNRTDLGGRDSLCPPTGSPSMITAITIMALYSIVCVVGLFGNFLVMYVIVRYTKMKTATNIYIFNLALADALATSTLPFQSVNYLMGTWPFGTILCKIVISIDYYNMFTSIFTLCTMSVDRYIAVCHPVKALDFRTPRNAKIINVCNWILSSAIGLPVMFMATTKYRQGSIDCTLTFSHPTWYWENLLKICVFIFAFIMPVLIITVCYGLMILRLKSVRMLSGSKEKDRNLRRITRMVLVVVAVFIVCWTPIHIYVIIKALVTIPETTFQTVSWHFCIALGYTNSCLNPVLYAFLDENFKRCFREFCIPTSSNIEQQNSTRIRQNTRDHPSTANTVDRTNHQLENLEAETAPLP
// reported Emax per item
Form entry: value (%) — number only.

| Compound string | Emax [%] |
| --- | --- |
| CN1C(=O)CNC(=O)[C@H](N[C@@H](Cc2ccc(O)cc2)C(=O)O)CCC/C=C/C[C@@H](C(=O)N2CCC[C@H]2C(=O)N[C@@H](CCC(N)=O)C(=O)N[C@@H](CCCNC(=N)N)C(=O)N[C@@H](Cc2ccccc2)C(N)=O)NC(=O)[C@@H]1Cc1ccccc1 | 120 |
| CN1C(=O)CNC(=O)[C@H](N[C@@H](Cc2ccc(O)cc2)C(=O)O)CCCC/C=C\CC[C@@H](C(=O)N2CCC[C@H]2C(=O)N[C@@H](CCC(N)=O)C(=O)N[C@@H](CCCNC(=N)N)C(=O)N[C@@H](Cc2ccccc2)C(N)=O)NC(=O)[C@@H]1Cc1ccccc1 | 109 |

Task: Look up Emax for this compound: CN1C(=O)CNC(=O)[C@H](N[C@@H](Cc2ccc(O)cc2)C(=O)O)CCC/C=C/CC[C@@H](C(=O)N2CCC[C@H]2C(=O)N[C@@H](CCC(N)=O)C(=O)N[C@@H](CCCNC(=N)N)C(=O)N[C@@H](Cc2ccccc2)C(N)=O)NC(=O)[C@@H]1Cc1ccccc1
Output: 102

Task: Emax for CN1C(=O)CNC(=O)[C@H](N[C@@H](Cc2ccc(O)cc2)C(=O)O)CCCC/C=C\C[C@@H](C(=O)N2CCC[C@H]2C(=O)N[C@@H](CCC(N)=O)C(=O)N[C@@H](CCCNC(=N)N)C(=O)N[C@@H](Cc2ccccc2)C(N)=O)NC(=O)[C@@H]1Cc1ccccc1 ?
Output: 98.1
